Target: CypA^V6L (UniProt P62937 1-165, V6L)
Sequence (P62937 whole entry V6L): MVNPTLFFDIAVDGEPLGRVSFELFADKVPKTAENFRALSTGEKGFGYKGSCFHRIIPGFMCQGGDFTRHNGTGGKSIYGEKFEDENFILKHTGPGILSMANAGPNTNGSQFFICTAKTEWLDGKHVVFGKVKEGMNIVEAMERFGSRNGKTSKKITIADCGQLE
Assay: NMR titration
READOUT_TYPE: Kd (µM)
Express the result in µM but write the number alone.

**Q:** Record request: Kd value, item GSFGPDLRAGD [FGP peptide]
**A:** 69
